System: NCI-H2347
Test: relative viability (nuclei count vs DMSO), 5 days (fraction); higher = more cells survive
Details: first compound 2.53 µM
quantity: relative viability

// solved cases for relative viability follow
compound	relative viability
O=c1cc(-c2cccc3c2Sc2ccccc2S3)oc(N2CCOCC2)c1 + CC(=O)c1c(C)c2cnc(Nc3ccc(N4CCNCC4)cn3)nc2n(C2CCCC2)c1=O [Palbociclib] (partner 0.5 µM)	0.39
COc1nc(C)cnc1NS(=O)(=O)c1cccnc1-c1ccc(-c2nnco2)cc1 [Zibotentan] + CS(=O)(=O)N1CCN(Cc2cc3nc(-c4cccc5[nH]ncc45)nc(N4CCOCC4)c3s2)CC1 [Pictilisib] (partner 1 µM)	0.769
O=c1cc(-c2cccc3c2Sc2ccccc2S3)oc(N2CCOCC2)c1 + Cc1nc(NC(=O)N2CCC[C@H]2C(N)=O)sc1-c1ccnc(C(C)(C)C(F)(F)F)c1 [Alpelisib] (partner 2 µM)	1.11
O=c1cc(-c2cccc3c2Sc2ccccc2S3)oc(N2CCOCC2)c1 + NC(=O)Nc1cc(-c2cccc(F)c2)sc1C(=O)N[C@H]1CCCNC1 [AZD7762] (partner 0.2 µM)	0.749

Task: Supply relative viability value. Item: COc1nc(C)cnc1NS(=O)(=O)c1cccnc1-c1ccc(-c2nnco2)cc1 [Zibotentan] + O=C(CCCCCCC(=O)Nc1ccccc1)NO [Vorinostat] (partner 1 µM)
Result: 0.744

====

Test system: NCI-H1395
Assay: relative viability (nuclei count vs DMSO), 5 days (fraction); higher = more cells survive
Conditions: first compound 8 µM
quantity: relative viability

// solved cases for relative viability follow
compound	test_system	relative viability
O=c1cc(-c2cccc3c2Sc2ccccc2S3)oc(N2CCOCC2)c1 + Nc1ncn([C@H]2C[C@H](O)[C@@H](CO)O2)c(=O)n1 [Decitabine] (partner 2 µM)	NCI-H1395	0.763
O=c1cc(-c2cccc3c2Sc2ccccc2S3)oc(N2CCOCC2)c1 + CCNC(=O)c1noc(-c2cc(C(C)C)c(O)cc2O)c1-c1ccc(CN2CCOCC2)cc1 [Luminespib] (partner 0.01 µM)	NCI-H1395	0.661
O=c1cc(-c2cccc3c2Sc2ccccc2S3)oc(N2CCOCC2)c1 + O=C(c1cc(Cc2n[nH]c(=O)c3ccccc23)ccc1F)N1CCN(C(=O)C2CC2)CC1 [Olaparib] (partner 8 µM)	NCI-H1395	0.47
O=c1cc(-c2cccc3c2Sc2ccccc2S3)oc(N2CCOCC2)c1 + N=C(N)NC(=N)NCCc1ccccc1 [Phenformin] (partner 250 µM)	NCI-H1395	0.433

Task: Supply relative viability value. Item: O=c1cc(-c2cccc3c2Sc2ccccc2S3)oc(N2CCOCC2)c1 + Cc1nc(NC(=O)N2CCC[C@H]2C(N)=O)sc1-c1ccnc(C(C)(C)C(F)(F)F)c1 [Alpelisib] (partner 2 µM)
Result: 1.05

====

Field: relative viability. Provide a value for each of the molecules that follow.
Tested on: NCI-H2085
Test: relative viability (nuclei count vs DMSO), 5 days (fraction); higher = more cells survive
Conditions: first compound 0.6325 µM

molecule	relative viability
COCC1(CO)C(=O)C2CCN1CC2 (stereo not given) [PRIMA-1MET] + CC(=O)c1c(C)c2cnc(Nc3ccc(N4CCNCC4)cn3)nc2n(C2CCCC2)c1=O [Palbociclib] (partner 0.5 µM)	0.515
COCC1(CO)C(=O)C2CCN1CC2 (stereo not given) [PRIMA-1MET] + CC1(C)CCC(c2ccc(Cl)cc2)=C(CN2CCN(c3ccc(C(=O)NS(=O)(=O)c4ccc(N[C@H](CCN5CCOCC5)CSc5ccccc5)c(S(=O)(=O)C(F)(F)F)c4)cc3)CC2)C1 [Navitoclax] (partner 0.5 µM)	1.04
COCC1(CO)C(=O)C2CCN1CC2 (stereo not given) [PRIMA-1MET] + CC(=O)Nc1cccc(-n2c(=O)n(C3CC3)c(=O)c3c(Nc4ccc(I)cc4F)n(C)c(=O)c(C)c32)c1 [Trametinib] (partner 0.02 µM)	0.61
COCC1(CO)C(=O)C2CCN1CC2 (stereo not given) [PRIMA-1MET] + CS(=O)(=O)CCNCc1ccc(-c2ccc3ncnc(Nc4ccc(OCc5cccc(F)c5)c(Cl)c4)c3c2)o1 [Lapatinib] (partner 2 µM)	0.591

Please examine the following record next.
Task: Supply relative viability value. Item: COCC1(CO)C(=O)C2CCN1CC2 (stereo not given) [PRIMA-1MET] + C[C@]1(O)C[C@@H](c2nc(-c3ccc4ccc(-c5ccccc5)nc4c3)c3c(N)nccn32)C1 [Linsitinib] (partner 1 µM)
Result: 0.826

====

Test system: HCC-366
Experiment: relative viability (nuclei count vs DMSO), 5 days (fraction); higher = more cells survive
Conditions: first compound 0.8 µM
Field: relative viability. Provide a value for each of the compounds that follow.

// solved cases for relative viability follow
compound	test_value
COc1nc(C)cnc1NS(=O)(=O)c1cccnc1-c1ccc(-c2nnco2)cc1 [Zibotentan] + CS(=O)(=O)N1CCN(Cc2cc3nc(-c4cccc5[nH]ncc45)nc(N4CCOCC4)c3s2)CC1 [Pictilisib] (partner 1 µM)	0.141
COc1nc(C)cnc1NS(=O)(=O)c1cccnc1-c1ccc(-c2nnco2)cc1 [Zibotentan] + CC(=O)c1c(C)c2cnc(Nc3ccc(N4CCNCC4)cn3)nc2n(C2CCCC2)c1=O [Palbociclib] (partner 0.5 µM)	0.383

Please examine the following record next.
Task: Provide measured relative viability on HCC-366 for COc1nc(C)cnc1NS(=O)(=O)c1cccnc1-c1ccc(-c2nnco2)cc1 [Zibotentan] + NC(=O)Nc1cc(-c2cccc(F)c2)sc1C(=O)N[C@H]1CCCNC1 [AZD7762] (partner 0.2 µM) please.
Result: 0.103

====

System: A549
Assay: relative viability (nuclei count vs DMSO), 5 days (fraction); higher = more cells survive
Conditions: first compound 0.8 µM
Field: relative viability. Provide a value for each of the compounds that follow.
Answers are plain numbers.

// solved cases for relative viability follow
compound	test_value
O=c1cc(-c2cccc3c2Sc2ccccc2S3)oc(N2CCOCC2)c1 + N=C(N)NC(=N)NCCc1ccccc1 [Phenformin] (partner 250 µM)	0.315
O=c1cc(-c2cccc3c2Sc2ccccc2S3)oc(N2CCOCC2)c1 + COc1cc2c(Oc3ccc(NC(=O)C4(C(=O)Nc5ccc(F)cc5)CC4)cc3F)ccnc2cc1OCCCN1CCOCC1 [Foretinib] (partner 0.25 µM)	1.15
O=c1cc(-c2cccc3c2Sc2ccccc2S3)oc(N2CCOCC2)c1 + CS(=O)(=O)CCNCc1ccc(-c2ccc3ncnc(Nc4ccc(OCc5cccc(F)c5)c(Cl)c4)c3c2)o1 [Lapatinib] (partner 2 µM)	1.19

Below is a list of compounds. For each, state its recorded relative viability.
1. O=c1cc(-c2cccc3c2Sc2ccccc2S3)oc(N2CCOCC2)c1 + Cc1nc(NC(=O)N2CCC[C@H]2C(N)=O)sc1-c1ccnc(C(C)(C)C(F)(F)F)c1 [Alpelisib] (partner 2 µM)
2. O=c1cc(-c2cccc3c2Sc2ccccc2S3)oc(N2CCOCC2)c1 + O=C(c1cc(Cc2n[nH]c(=O)c3ccccc23)ccc1F)N1CCN(C(=O)C2CC2)CC1 [Olaparib] (partner 8 µM)
3. COc1nc(C)cnc1NS(=O)(=O)c1cccnc1-c1ccc(-c2nnco2)cc1 [Zibotentan] + CS(=O)(=O)CCNCc1ccc(-c2ccc3ncnc(Nc4ccc(OCc5cccc(F)c5)c(Cl)c4)c3c2)o1 [Lapatinib] (partner 2 µM)
4. COc1nc(C)cnc1NS(=O)(=O)c1cccnc1-c1ccc(-c2nnco2)cc1 [Zibotentan] + Cc1nc(NC(=O)N2CCC[C@H]2C(N)=O)sc1-c1ccnc(C(C)(C)C(F)(F)F)c1 [Alpelisib] (partner 2 µM)
5. COc1nc(C)cnc1NS(=O)(=O)c1cccnc1-c1ccc(-c2nnco2)cc1 [Zibotentan] + N=C(N)NC(=N)NCCc1ccccc1 [Phenformin] (partner 250 µM)

Result:
1: 0.857; 2: 0.277; 3: 1.05; 4: 0.704; 5: 0.183

====

Tested on: NCI-H2023
Assay: relative viability (nuclei count vs DMSO), 5 days (fraction); higher = more cells survive
Details: first compound 2 µM
Lab note: cut-off is 0.4. Strictly less in relative viability is class 1. Exactly 0.4 or more is class 0.

compound	answer_label
COCC1(CO)C(=O)C2CCN1CC2 (stereo not given) [PRIMA-1MET] + CS(=O)(=O)N1CCN(Cc2cc3nc(-c4cccc5[nH]ncc45)nc(N4CCOCC4)c3s2)CC1 [Pictilisib] (partner 1 µM)	class 1
COCC1(CO)C(=O)C2CCN1CC2 (stereo not given) [PRIMA-1MET] + C[C@@H](Oc1cc(-c2cnn(C3CCNCC3)c2)cnc1N)c1c(Cl)ccc(F)c1Cl [Crizotinib] (partner 1 µM)	class 0

Now consider a different compound.
Task: Below 0.4 on relative viability? Entry COCC1(CO)C(=O)C2CCN1CC2 (stereo not given) [PRIMA-1MET] + CC1(C)CCC(c2ccc(Cl)cc2)=C(CN2CCN(c3ccc(C(=O)NS(=O)(=O)c4ccc(N[C@H](CCN5CCOCC5)CSc5ccccc5)c(S(=O)(=O)C(F)(F)F)c4)cc3)CC2)C1 [Navitoclax] (partner 0.5 µM)
Result: class 0
